Recorded values, source ChEMBL document CHEMBL1147035.

Each record here notes measured pIC50.
Molecular target: Neutrophil collagenase (Homo sapiens, UniProt P22894)
Sequence (P22894 whole entry): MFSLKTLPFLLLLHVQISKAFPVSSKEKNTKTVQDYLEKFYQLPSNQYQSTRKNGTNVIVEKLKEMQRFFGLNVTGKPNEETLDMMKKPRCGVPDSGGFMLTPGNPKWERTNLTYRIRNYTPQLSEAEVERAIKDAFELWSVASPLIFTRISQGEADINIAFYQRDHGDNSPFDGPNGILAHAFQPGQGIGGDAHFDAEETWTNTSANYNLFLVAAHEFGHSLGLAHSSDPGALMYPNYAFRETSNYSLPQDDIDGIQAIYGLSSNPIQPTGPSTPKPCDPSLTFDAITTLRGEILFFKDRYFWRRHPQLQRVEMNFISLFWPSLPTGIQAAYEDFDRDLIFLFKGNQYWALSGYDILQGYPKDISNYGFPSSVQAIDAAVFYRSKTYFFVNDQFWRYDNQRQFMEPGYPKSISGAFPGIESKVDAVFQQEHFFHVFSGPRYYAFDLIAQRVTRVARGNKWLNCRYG
Experiment: Inhibition of human MMP8
pIC50: −log10 of the molar value.

compound	pIC50
C[C@H]1c2cccc(O)c2C(=O)C2=C(O)[C@]3(O)C(=O)C(C(N)=O)=C(O)[C@@H]([N+](C)(C)C)C3[C@H](O)C21.[I-] (some centres undefined)	4.96
C[C@@]1(O)c2cccc(O)c2C(=O)C2=C(O)[C@]3(O)C(=O)C(C(N)=O)=C(O)[C@@H]([N+](C)(C)C)C3CC21 (some centres undefined)	3.96
C[C@H]1c2cccc(O)c2C(=O)C2=C(O)[C@]3(O)C(=O)C(C(N)=O)=C(O)[C@@H](N(C)C)[C@@H]3C(O)[C@@H]21.O (single isomer, unassigned) [DOXYCYCLINE]	4.51
CN(C)[C@@H]1C(O)=C(C(N)=O)C(=O)[C@@]2(O)C(O)=C3C(=O)c4c(O)cccc4[C@@](C)(O)[C@H]3C[C@@H]12 [TETRACYCLINE]	3.74

----------
// Collagenase 3 (Homo sapiens, UniProt P45452) pIC50 records
pIC50: −log10 of the molar value.

compound	pIC50
C[C@@]1(O)c2cccc(O)c2C(=O)C2=C(O)[C@]3(O)C(=O)C(C(N)=O)=C(O)[C@@H]([N+](C)(C)C)C3CC21 (stereo partly drawn)	3.92
CN(C)[C@@H]1C(O)=C(C(N)=O)C(=O)[C@@]2(O)C(O)=C3C(=O)c4c(O)cccc4[C@@](C)(O)[C@H]3C[C@@H]12 [TETRACYCLINE]	3.74
C[C@H]1c2cccc(O)c2C(=O)C2=C(O)[C@]3(O)C(=O)C(C(N)=O)=C(O)[C@@H](N(C)C)[C@@H]3C(O)[C@@H]21.O (single isomer, unassigned) [DOXYCYCLINE]	4.40
